biological target: human VDR (Homo sapiens, UniProt P11473); experiment: Evaluation of VDR transcription activity in human osteoblasts (HOS cells), luciferase reporter; conditions: Activity (EC50, VDR transcription activity), HOS cells transfected with human VDR, human RXRα and DR3 luciferase reporter; 21 hours
pEC50: −log10 of the molar value.
pEC50 values by entry

>>> assayresult("C[C@H](CCN1CCO[C@@H](C)C1)[C@H]1CC[C@H]2/C(=C/C=C3C[C@@H](O)C[C@H](O)C3)CCC[C@]12C")
"6.00 to 7.00"
>>> assayresult("C=C1[C@H](O)CC(=C/C=C2\\CCC[C@]3(C)[C@@H]([C@H](C)CN4CCCC(O)(CC)C4)CC[C@@H]23)C[C@H]1O (single isomer, unassigned) [Compound C046b]")
"8.00 to 9.00"
>>> assayresult("C[C@@H](CN1CC[C@@H](F)C1)[C@H]1CC[C@H]2/C(=C/C=C3CC(O)C[C@H](O)C3)CCC[C@]12C (stereo in doubt)")
"7.00 to 8.00"
>>> assayresult("C=C1/C(=C\\C=C2/CCC[C@]3(C)[C@@H]([C@H](C)CN4CC[C@@H](CC(F)F)C4)CC[C@@H]23)C[C@@H](O)C[C@@H]1O")
"7.00 to 8.00"
>>> assayresult("C=C1/C(=C\\C=C2/CCC[C@]3(C)[C@@H]([C@H](C)CN4CCC(O)(C(F)F)CC4)CC[C@@H]23)C[C@@H](O)C[C@@H]1O")
"6.00 to 7.00"

The reported human VDR (Homo sapiens, UniProt P11473) pEC50 of C=C1/C(=C\C=C2/CCC[C@]3(C)[C@@H]([C@H](C)CN4CC[C@@H](OC(F)(F)F)C4)CC[C@@H]23)C[C@@H](O)C[C@@H]1O is 7.00 to 8.00

The reported human VDR (Homo sapiens, UniProt P11473) pEC50 of C=C1[C@H](O)CC(=C/C=C2\CCC[C@]3(C)[C@@H]([C@H](C)CCN4C[C@@H](C)O[C@@H](C)C4)CC[C@@H]23)C[C@H]1O is 8.00 to 9.00

The reported human VDR (Homo sapiens, UniProt P11473) pEC50 of C[C@H](CCCN1CC[C@@H](F)C1)[C@H]1CC[C@H]2/C(=C/C=C3C[C@@H](O)C[C@H](O)C3)CCC[C@]12C is 7.00 to 8.00

The reported human VDR (Homo sapiens, UniProt P11473) pEC50 of C=C1/C(=C\C=C2/CCC[C@]3(C)[C@@H]([C@H](C)CN4CCCC(C)(OC)C4)CC[C@@H]23)C[C@@H](O)C[C@@H]1O (single isomer, unassigned) [Compound C043b] is 6.00 to 7.00

The reported human VDR (Homo sapiens, UniProt P11473) pEC50 of C=C1[C@H](O)CC(=C/C=C2\CCC[C@]3(C)[C@@H]([C@H](C)CCN4CC[C@H](CC(F)F)C4)CC[C@@H]23)C[C@H]1O is 8.00 to 9.00

The reported human VDR (Homo sapiens, UniProt P11473) pEC50 of C[C@H](CN1CC[C@@H](OC(F)(F)F)C1)[C@H]1CC[C@H]2/C(=C/C=C3CC(O)C[C@H](O)C3)CCC[C@]12C (stereo in doubt) is 7.00 to 8.00

###

target: human VDR (Homo sapiens); assay: Evaluation of VDR transcription activity in human osteoblasts (HOS cells), luciferase reporter; conditions: Activity (EC50, VDR transcription activity), HOS cells transfected with human VDR, human RXRα and DR3 luciferase reporter; 21 hours
endpoint: EC50

Answered examples (5):
>>> assayresult("C[C@H](CN1CCOC2(CC2)C1)[C@H]1CC[C@H]2/C(=C/C=C3C[C@@H](O)C[C@H](O)C3)CCC[C@]12C [Compound D019]")
"10 to 100 nM"
>>> assayresult("C=C1/C(=C\\C=C2/CCC[C@]3(C)[C@@H]([C@H](C)CN4CC[C@H](OC(F)(F)F)C4)CC[C@@H]23)C[C@@H](O)C[C@@H]1O [Compound B065]")
"10 to 100 nM"
>>> assayresult("C[C@H](CCCN1CC[C@@H](C(F)F)C1)[C@H]1CC[C@H]2/C(=C/C=C3C[C@@H](O)C[C@H](O)C3)CCC[C@]12C [Compound B085]")
"10 to 100 nM"
>>> assayresult("C=C1[C@H](O)CC(=C/C=C2\\CCC[C@]3(C)[C@@H]([C@H](C)CCN4CC(O)(C(F)(F)F)C4)CC[C@@H]23)C[C@H]1O [Compound A023]")
"< 1 nM"
>>> assayresult("C=C1/C(=C\\C=C2/CCC[C@]3(C)[C@@H]([C@H](C)CN4CCC[C@H](C(F)F)C4)CC[C@@H]23)C[C@@H](O)C[C@@H]1O [Compound C048]")
"10 to 100 nM"

# ---- query compound ----
The compound listed as CCC1(O)CCCN(C[C@@H](C)[C@H]2CC[C@H]3/C(=C/C=C4C[C@@H](O)C[C@H](O)C4)CCC[C@]23C)C1 (single isomer, unassigned) [Compound C044b] shows EC50 equal to 100 to 1000 nM

###

pEC50 values by entry
molecular target: human VDR (Homo sapiens); assay: Evaluation of VDR transcription activity in human osteoblasts (HOS cells), luciferase reporter; conditions: Activity (EC50, VDR transcription activity), HOS cells transfected with human VDR, human RXRα and DR3 luciferase reporter; 21 hours
pEC50: −log10 of the molar value.

>>> assayresult("C=C1/C(=C\\C=C2/CCC[C@]3(C)[C@@H]([C@H](C)CN4CC[C@H](CC(F)F)C4)CC[C@@H]23)C[C@@H](O)C[C@@H]1O [Compound B036]")
"7.00 to 8.00"
>>> assayresult("C[C@H](CN1CC[C@H](OCC(F)F)C1)[C@H]1CC[C@H]2/C(=C/C=C3C[C@@H](O)C[C@H](O)C3)CCC[C@]12C [Compound B057]")
"6.00 to 7.00"
>>> assayresult("C=C1[C@H](O)CC(=C/C=C2\\CCC[C@]3(C)[C@@H]([C@H](C)CN4CCC(O)(C(F)F)CC4)CC[C@@H]23)C[C@H]1O [Compound C022]")
"7.00 to 8.00"

The compound listed as C=C1[C@H](O)CC(=C/C=C2\CCC[C@]3(C)[C@@H]([C@H](C)CN4CCO[C@@H](C)C4)CC[C@@H]23)C[C@H]1O [Compound D010] shows pEC50 equal to 8.00 to 9.00

The compound listed as COC1(C(F)(F)F)CN(CC[C@@H](C)[C@H]2CC[C@H]3/C(=C/C=C4C[C@@H](O)C[C@H](O)C4)CCC[C@]23C)C1 [Compound A027] shows pEC50 equal to 8.00 to 9.00

The compound listed as C=C1[C@H](O)CC(=C/C=C2\CCC[C@]3(C)[C@@H]([C@H](C)CN4CC[C@@H](OCC(F)F)C4)CC[C@@H]23)C[C@H]1O [Compound B056] shows pEC50 equal to 7.00 to 8.00

The compound listed as C[C@H](CN1CC[C@@H](CCC(F)F)C1)[C@H]1CC[C@H]2/C(=C/C=C3C[C@@H](O)C[C@H](O)C3)CCC[C@]12C [Compound B064] shows pEC50 equal to 6.00 to 7.00

###

Biological target: human VDR (Homo sapiens, UniProt P11473)
Sequence (P11473 1-427): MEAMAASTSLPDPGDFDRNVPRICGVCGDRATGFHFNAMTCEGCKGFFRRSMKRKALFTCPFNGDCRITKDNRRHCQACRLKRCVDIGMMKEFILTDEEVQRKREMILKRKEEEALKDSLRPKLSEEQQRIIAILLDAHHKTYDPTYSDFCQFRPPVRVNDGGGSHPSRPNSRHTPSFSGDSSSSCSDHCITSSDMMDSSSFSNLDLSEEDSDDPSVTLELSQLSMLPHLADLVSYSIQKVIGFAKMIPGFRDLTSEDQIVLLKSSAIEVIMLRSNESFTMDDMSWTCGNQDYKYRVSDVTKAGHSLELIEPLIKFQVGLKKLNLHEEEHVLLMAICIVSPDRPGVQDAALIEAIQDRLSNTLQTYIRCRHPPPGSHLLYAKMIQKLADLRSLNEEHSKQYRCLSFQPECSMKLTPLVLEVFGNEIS
Sequence (P19793 1-462 partner): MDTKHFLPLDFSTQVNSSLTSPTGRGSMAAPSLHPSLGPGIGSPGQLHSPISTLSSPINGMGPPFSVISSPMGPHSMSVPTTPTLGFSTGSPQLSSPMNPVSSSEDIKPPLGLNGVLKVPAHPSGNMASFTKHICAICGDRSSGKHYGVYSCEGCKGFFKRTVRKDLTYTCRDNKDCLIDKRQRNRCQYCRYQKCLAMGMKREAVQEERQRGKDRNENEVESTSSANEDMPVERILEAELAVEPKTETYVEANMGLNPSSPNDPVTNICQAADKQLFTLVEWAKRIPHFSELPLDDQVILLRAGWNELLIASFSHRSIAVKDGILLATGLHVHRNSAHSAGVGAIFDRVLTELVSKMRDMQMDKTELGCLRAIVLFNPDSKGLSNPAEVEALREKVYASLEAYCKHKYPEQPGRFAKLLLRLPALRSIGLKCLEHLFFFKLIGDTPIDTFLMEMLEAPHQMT
Assay: Evaluation of VDR transcription activity in human osteoblasts (HOS cells), luciferase reporter
Details: Activity (EC50, VDR transcription activity), HOS cells transfected with human VDR, human RXRα and DR3 luciferase reporter; 21 hours
pEC50: −log10 of the molar value.
endpoint: pEC50

Answered examples (5):
>>> assayresult("C=C1[C@H](O)CC(=C/C=C2\\CCC[C@]3(C)[C@@H]([C@H](C)CN4CC[C@@H](CCC(F)F)C4)CC[C@@H]23)C[C@H]1O [Compound B062]")
"7.00 to 8.00"
>>> assayresult("C=C1/C(=C\\C=C2/CCC[C@]3(C)[C@@H]([C@@H](C)CN4CCC(O)(C(F)F)CC4)CC[C@@H]23)C[C@@H](O)C[C@@H]1O [Compound C024]")
"8.00 to 9.00"
>>> assayresult("C=C1/C(=C\\C=C2/CCC[C@]3(C)[C@@H]([C@H](C)CN4CC[C@H](OC(F)F)C4)CC[C@@H]23)C[C@@H](O)C[C@@H]1O [Compound B047]")
"7.00 to 8.00"
>>> assayresult("C[C@@H](CN1CCC(O)(C(F)F)CC1)[C@H]1CC[C@H]2/C(=C/C=C3C[C@@H](O)C[C@H](O)C3)CCC[C@]12C [Compound C025]")
"7.00 to 8.00"
>>> assayresult("C=C1/C(=C\\C=C2/CCC[C@]3(C)[C@@H]([C@@H](C)CN4CC[C@@H](C)C4)CC[C@@H]23)C[C@@H](O)C[C@@H]1O [Compound B011]")
"7.00 to 8.00"

# ---- query molecule ----
The molecule listed as C=C1/C(=C\C=C2/CCC[C@]3(C)[C@@H]([C@@H](C)CN4CCC(O)(C(F)(F)F)CC4)CC[C@@H]23)C[C@@H](O)[C@H](C)[C@@H]1O [Compound C006] shows pEC50 equal to > 9.00
